The reported measurements were obtained from PubChem BioAssay AID1626.

- test-description: M. tuberculosis H37Rv growth inhibitors, H37Rv strain (AID 1626);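 further: bacteria incubated seven days before Alamar blue readout; 0% = bacteria only wells and 100% = bacteria with antibiotic wells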
- applied-conditions: active compounds read high, concentration not given here
The whole screen tested about 220,000 compounds, of which about 2,000 (0.91%) were called active. Roughly 2% stayed inconclusive and do not appear here. These entries were drawn from the full list. Measured potencies and affinities stand elsewhere.
assay-metric: inhibition (%)
Give bare numbers, in %.

As a guide, the following entries are already answered.
>>> reading("Cc1ccc(C(=O)N[C@@H](C)CN2C3=NC[C@H](Cc4ccccc4)N3C[C@H]2Cc2ccc(O)cc2)cc1Br")
21.4
>>> reading("C=CCNC(=O)CSc1nnc(-c2ccccc2Cl)n1-c1c(C)n(C)n(-c2ccccc2)c1=O")
-3.15
>>> reading("COc1cc(/C=C2\\SC(=N)N(c3ccc(F)cc3)C2=O)ccc1O")
7.97

Look at each compound and report its inhibition.
1. Cc1ccc(NC(=S)Nc2cc(C)on2)cc1
2. O=C(NCCCN1CCN(CCCNC(=O)c2ccc(F)cc2)CC1)c1ccc(F)cc1
3. Cc1cccc(/C=C2\CS/C(=C\c3cccc(C)c3)C2=O)c1
4. CCOc1cc(/C=C2\SC(=N)N(c3nonc3N)C2=O)ccc1OCC(N)=O
5. CSc1sc(-c2ccnc(=S)[nH]2)c(-c2ccccc2)c1C#N

4.76
-9.24
-5.7
4
-4.19
